Measured AC50 on Kappa-type opioid receptor (Homo sapiens) follows.
Sequence (P41145 whole entry): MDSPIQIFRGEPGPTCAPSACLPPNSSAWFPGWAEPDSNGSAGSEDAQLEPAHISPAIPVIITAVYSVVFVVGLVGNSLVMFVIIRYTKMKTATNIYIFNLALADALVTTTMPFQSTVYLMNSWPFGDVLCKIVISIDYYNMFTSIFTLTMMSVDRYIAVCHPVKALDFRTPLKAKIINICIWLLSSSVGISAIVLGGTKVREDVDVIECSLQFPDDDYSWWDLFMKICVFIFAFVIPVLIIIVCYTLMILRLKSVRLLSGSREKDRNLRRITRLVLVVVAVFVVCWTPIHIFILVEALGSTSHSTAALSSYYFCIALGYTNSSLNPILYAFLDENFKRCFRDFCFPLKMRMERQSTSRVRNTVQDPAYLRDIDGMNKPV
METRIC: AC50

[[record]]
molecule = "Cc1ccc(=O)n(-c2ccccc2)c1 [PIRFENIDONE]"
metric = "AC50"
measured_result = "> 30 µM"

[[record]]
molecule = "CCC(C)(Oc1ccc(C2(c3ccc(OC(C)(CC)C(=O)O)cc3)CCCCC2)cc1)C(=O)O (stereo not given) [CLINOFIBRATE]"
metric = "AC50"
measured_result = "> 30 µM"

[[record]]
molecule = "CC(=O)c1ccc2c(c1)N(CCCN1CCC(CCO)CC1)c1ccccc1S2 [PIPERACETAZINE]"
metric = "AC50"
measured_result = "4 µM"

[[record]]
molecule = "CNC[C@H](O)c1cccc(O)c1 [PHENYLEPHRINE]"
metric = "AC50"
measured_result = "> 10 µM"

[[record]]
molecule = "CC(=O)OCC(=O)[C@@]1(O)CC[C@H]2[C@@H]3CCC4=CC(=O)CC[C@]4(C)C3=CC[C@@]21C [ANECORTAVE ACETATE]"
metric = "AC50"
measured_result = "> 10 µM"

[[record]]
molecule = "CCN(CC)C(=O)C1CN2CCc3cc(OC)c(OC)cc3C2CC1OC(C)=O (stereo not given) [BENZQUINAMIDE]"
metric = "AC50"
measured_result = "> 30 µM"

[[record]]
molecule = "COCCCOc1ccnc(C[S+]([O-])c2nc3ccccc3[nH]2)c1C (stereo not given) [RABEPRAZOLE]"
metric = "AC50"
measured_result = "> 10 µM"

[[record]]
molecule = "Cn1c(=O)c2[nH]cnc2n(C)c1=O [THEOPHYLLINE]"
metric = "AC50"
measured_result = "> 10 µM"

[[record]]
molecule = "CC1(C)C(/C=C/C=C/C=C/C=C2\\N(CCCCS(=O)(=O)O)c3ccc4ccccc4c3C2(C)C)=[N+](CCCCS(=O)(=O)[O-])c2ccc3ccccc3c21 [INDOCYANINE GREEN ACID FORM]"
metric = "AC50"
measured_result = "13 µM"

[[record]]
molecule = "COc1c(O[C@@H]2O[C@H](CO)[C@@H](O)[C@H](O)[C@H]2O)cc2c(c1OC)-c1ccc(SC)c(=O)cc1[C@@H](NC(C)=O)CC2 [THIOCOLCHICOSIDE]"
metric = "AC50"
measured_result = "> 30 µM"

[[record]]
molecule = "COC(=O)[C@H](c1ccccc1Cl)N1CCc2sccc2C1 [CLOPIDOGREL]"
metric = "AC50"
measured_result = "14.9 µM"

[[record]]
molecule = "O=C(O)c1ccccc1OP(=O)(O)O [FOSFOSAL]"
metric = "AC50"
measured_result = "> 30 µM"

[[record]]
molecule = "O=C(Nc1nc(-c2cc(Cl)cs2)c(N2CCN(C3CCCCC3)CC2)s1)c1cnc(N2CCC(C(=O)O)CC2)c(Cl)c1 [AVATROMBOPAG]"
metric = "AC50"
measured_result = "> 10 µM"

[[record]]
molecule = "C[C@@H]1CCC[C@H](C)N1NC(=O)c1ccc(Cl)c(S(N)(=O)=O)c1 [CLOPAMIDE]"
metric = "AC50"
measured_result = "> 30 µM"

[[record]]
molecule = "CS(=O)(=O)OCCCCOS(C)(=O)=O [BUSULFAN]"
metric = "AC50"
measured_result = "> 30 µM"

[[record]]
molecule = "C=CC(N)CCC(=O)O (stereo not given) [VIGABATRIN]"
metric = "AC50"
measured_result = "> 10 µM"

[[record]]
molecule = "CCN(CC)C(=O)C1(c2ccccc2)CC1CN (stereo not given)"
metric = "AC50"
measured_result = "> 30 µM"

[[record]]
molecule = "CO/N=C(\\C(=O)N[C@@H]1C(=O)N2C(C(=O)O)=C(COC(N)=O)CS[C@H]12)c1ccco1 [CEFUROXIME]"
metric = "AC50"
measured_result = "> 30 µM"

[[record]]
molecule = "COC1=C(OC)C(=O)C(CCCCCCCCCCO)=C(C)C1=O [IDEBENONE]"
metric = "AC50"
measured_result = "> 10 µM"

[[record]]
molecule = "CNC(=O)Oc1ccc2c(c1)[C@]1(C)CCN(C)[C@@H]1N2C [PHYSOSTIGMINE]"
metric = "AC50"
measured_result = "2.2 µM"

[[record]]
molecule = "Cc1ccc2c(-c3ccccc3)nc(=O)n(C(C)C)c2c1 [PROQUAZONE]"
metric = "AC50"
measured_result = "> 30 µM"

[[record]]
molecule = "CCCCC[C@H](O)/C=C/[C@H]1[C@H](O)CC(=O)[C@@H]1C/C=C\\CCCC(=O)O [DINOPROSTONE]"
metric = "AC50"
measured_result = "22 µM"

[[record]]
molecule = "CC(=O)OCC(CCn1cnc2cnc(N)nc21)COC(C)=O [FAMCICLOVIR]"
metric = "AC50"
measured_result = "> 10 µM"

[[record]]
molecule = "COc1cccc(N(C)C(=S)Oc2ccc3c(c2)CCCC3)n1 [LIRANAFTATE]"
metric = "AC50"
measured_result = "1.5 µM"

[[record]]
molecule = "N#C[C@@H]1CCCN1C(=O)CNC12CC3CC(CC(O)(C3)C1)C2 [VILDAGLIPTIN]"
metric = "AC50"
measured_result = "> 30 µM"

[[record]]
molecule = "NCCCC(O)(P(=O)(O)O)P(=O)(O)O [ALENDRONIC ACID]"
metric = "AC50"
measured_result = "> 10 µM"

[[record]]
molecule = "Nc1nc2c(c(=O)[nH]1)N(C=O)C(CNc1ccc(C(=O)N[C@@H](CCC(=O)O)C(=O)O)cc1)CN2 (stereo not given in full) [LEUCOVORIN]"
metric = "AC50"
measured_result = "> 30 µM"

[[record]]
molecule = "CCCN(CC)C(CC)C(=O)Nc1c(C)cccc1C (stereo not given) [ETIDOCAINE]"
metric = "AC50"
measured_result = "> 30 µM"

[[record]]
molecule = "CN(C)c1cc(NC(=O)CNC(C)(C)C)c(O)c2c1C[C@H]1C[C@H]3[C@H](N(C)C)C(O)=C(C(N)=O)C(=O)[C@@]3(O)C(O)=C1C2=O [TIGECYCLINE]"
metric = "AC50"
measured_result = "> 30 µM"

[[record]]
molecule = "Nc1ccc(C(=O)O)c(O)c1 [AMINOSALICYLIC ACID]"
metric = "AC50"
measured_result = "> 30 µM"

[[record]]
molecule = "CCCOC(C(=O)OC1CCN(C)CC1)(c1ccccc1)c1ccccc1 [PROPIVERINE]"
metric = "AC50"
measured_result = "11 µM"

[[record]]
molecule = "Cc1cccc(N(C)C(=S)Oc2ccc3ccccc3c2)c1 [TOLNAFTATE]"
metric = "AC50"
measured_result = "> 10 µM"

[[record]]
molecule = "CN(c1nccc(=O)[nH]1)C1CCN(c2nc3ccccc3n2Cc2ccc(F)cc2)CC1 [MIZOLASTINE]"
metric = "AC50"
measured_result = "> 30 µM"

[[record]]
molecule = "CN1CCN(c2c(F)cc3c(=O)c(C(=O)O)cn4c3c2SCC4)CC1 [RUFLOXACIN]"
metric = "AC50"
measured_result = "> 30 µM"

[[record]]
molecule = "CC(C)=CCOc1ccc(/C=C/C(=O)c2ccc(OCC=C(C)C)cc2OCC(=O)O)cc1 [SOFALCONE]"
metric = "AC50"
measured_result = "12 µM"

